target: TGFBR1 (human); assay: radiometric filter-binding kinase assay, Kinase HotSpot; settings: compound 0.5 µM; ATP 10 µM
measured_attribute: residual activity (%)
Report only the number, with the unit % understood.

-- ask Given the molecule `O=C1NC(=O)c2c1c1c3ccccc3[nH]c1n1cncc21` , what is its reported residual activity?
-- reply 96.3

-- ask Given the molecule `CN(C)S(=O)(=O)c1ccc2c(c1)/C(=C/c1cc3c([nH]1)CCCC3)C(=O)N2` , what is its reported residual activity?
-- reply 95.9

-- ask Given the molecule `Cc1cncc2cccc(S(=O)(=O)N3CCCN(C(=O)CN)C[C@H]3C)c12` , what is its reported residual activity?
-- reply 100

-- ask Given the molecule `N#C/C(=C\c1ccc(O)c(O)c1)C(=O)NCc1ccccc1` , what is its reported residual activity?
-- reply 97.6
